// provenance: ChEMBL document CHEMBL1961873

Exercise: state measured inhibition for each of the compounds provided.
- ASSAYED_SYSTEM: Serine/threonine-protein kinase Nek2 (Homo sapiens) (UniProt P51955);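 further: mean inhibition value from the GSK PKIS kinase screening panel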
- Sequence (P51955 whole entry): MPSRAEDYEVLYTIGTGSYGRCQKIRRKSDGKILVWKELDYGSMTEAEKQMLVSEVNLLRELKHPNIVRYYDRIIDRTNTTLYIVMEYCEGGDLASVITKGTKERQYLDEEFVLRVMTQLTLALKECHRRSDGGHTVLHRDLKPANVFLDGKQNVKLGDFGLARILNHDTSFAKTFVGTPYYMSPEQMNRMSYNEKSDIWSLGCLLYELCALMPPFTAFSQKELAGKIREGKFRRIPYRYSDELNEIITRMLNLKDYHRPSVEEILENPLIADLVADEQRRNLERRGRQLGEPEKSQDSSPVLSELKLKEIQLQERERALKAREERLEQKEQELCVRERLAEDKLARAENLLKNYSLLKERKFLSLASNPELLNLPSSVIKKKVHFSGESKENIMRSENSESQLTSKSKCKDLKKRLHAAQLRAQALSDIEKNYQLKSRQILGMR
- REPORTED_CONDITIONS: at 0.1 µM
One number for each entry, in %.

Study these solved cases before continuing.
> print(dat)
                                   compound                            assayed.system  experimental.readout  quantitative.result
1  CN1CCN(CCCNc2nc3ccc(Oc4ccc(NC(=O)Nc5cc(C(F)(F)F)ccc5F)cc4)cc3[nH]2)CC1  Serine/threonine-protein kinase Nek2 (Homo sapiens) (UniProt P51955)            inhibition                 0.71
2  NC(=O)Cc1ccccc1Oc1nccc(-c2c(-c3ccc(F)cc3)ncn2C2CCNCC2)n1  Serine/threonine-protein kinase Nek2 (Homo sapiens) (UniProt P51955)            inhibition                 2.13
3        CNC(=O)c1cncc(/C=C/c2c(C)cccc2C)c1  Serine/threonine-protein kinase Nek2 (Homo sapiens) (UniProt P51955)            inhibition                 0.66
4  CS(=O)(=O)CCNCc1cc(-c2cc3c(Nc4ccc(OCc5cccc(F)c5)c(Cl)c4)ncnc3s2)cs1  Serine/threonine-protein kinase Nek2 (Homo sapiens) (UniProt P51955)            inhibition                 6.26
5  c1ccc(-c2n[nH]cc2-c2ccnc(-c3ccc(OCCN4CCOCC4)cc3)c2)nc1  Serine/threonine-protein kinase Nek2 (Homo sapiens) (UniProt P51955)            inhibition                -2.95

Batch request: inhibition per item, same order as input.
1. Clc1ccc(CNc2nccc(-c3cnn4ncccc34)n2)cc1
2. O=C(Nc1n[nH]c2nc(-c3ccc(O)cc3)c(Br)cc12)C1CC1
3. COc1cccc(/C=N/Nc2ncnc3c2cnn3-c2cccc(OC)c2)c1
4. COc1ccc2cc(-c3c(-c4ccncc4)nc(-c4ccc(S(C)(=O)=O)cc4C)n3C)ccc2c1

0.93
6.4
5.68
5.82

Look up inhibition for the entries below, preserving their order.
1. COc1ccc(-c2ccc3c(NC(=O)C4CC4)n[nH]c3n2)cc1
2. COc1cc2ncn(-c3cc(OCc4cccs4)c(C(N)=O)s3)c2cc1OC
3. c1ccc(Oc2ccc(Nc3ncc(-c4ccccc4)o3)cc2)cc1

1.84
4.6
1.83

Below is a list of compounds. For each, state its recorded inhibition.
1. COc1cc(N2CCN(C(C)C)CC2)ccc1Nc1nc(Nc2ccc(F)cc2C(=O)NC[C@@H](O)CO)c2cc[nH]c2n1
2. NS(=O)(=O)c1ccc(Nc2cc(-c3ccc(O)c(F)c3)n[nH]2)cc1
3. CCc1cccc(CC)c1/C=C/c1cncc(C(=O)NC)c1

1. 5.32
2. -3.94
3. 3.4

Consider the following items and state reported inhibition for each.
1. NS(=O)(=O)c1ccc(N/N=C2\C(=O)Nc3ccc(-c4cnco4)cc32)cc1
2. NCc1ccc(-n2c(-c3nonc3N)nc3cnccc32)cc1

2.64
6.17

Need inhibition for each of these compounds.
1. N#Cc1ccc(Oc2nccc(-c3c(-c4ccc(F)cc4)ncn3C3CCNCC3)n2)cc1
2. CN(c1ccc(NC(=O)Nc2c(Cl)cccc2Cl)cc1)c1ccnc(Nc2cccc(CS(C)(=O)=O)c2)n1
3. O=C(Nc1n[nH]c2cc(-c3ccccc3)ccc12)C1CC1
4. O=C1Nc2ccccc2/C1=C/Nc1ccc(-n2cncn2)cc1
5. Fc1ccc(-c2ncn(C3CCNCC3)c2-c2ccnc(Oc3ccc(F)c(F)c3)n2)cc1

1. 4.13
2. 0.12
3. 5.82
4. 4.4
5. 5.55

Your task in this section: give inhibition for each listed record.
1. Fc1ccc(-c2c(-c3ccncc3)nc3n2CCS3)cc1
2. CN(C)CCOc1ccc(-c2cc(-c3ccc4c(c3)CCC4=NO)c(-c3ccncc3)o2)cc1
3. COc1cc2ncn(-c3cc(OCc4ccccc4C(F)(F)F)c(C(C)=O)s3)c2cc1OC
4. Cc1ccc(C(=O)NC2CCC2)cc1-c1ccc(C(=O)NCC2CC2)cc1
5. CN(C)c1ccc2c(c1)/C(=C/Nc1ccc(S(N)(=O)=O)cc1)C(=O)N2
6. Nc1nccc(-c2c(-c3ccc(F)cc3)ncn2C2CCC(O)CC2)n1 (stereo not drawn)

2.33
-0.54
3.91
4.6
2.78
-2.37
